target_entity: VIM-1 (Pseudomonas aeruginosa (strain ATCC 15692 / DSM 22644 / CIP 104116 / JCM 14847 / LMG 12228 / 1C / PRS 101 / PAO1), UniProt A0A0F7KYQ8)
assay_explanation: Enzyme activity: determination of IC50, fluorescence assay with CCF2-FA substrate (VIM-1)
Type: biochemical
measurement_context: fluorescence assay with CCF2-FA substrate; read-out: VIM-1 IC50
pIC50: −log10 of the molar value.
reported_property: pIC50

NS(=O)(=O)c1c(C(F)(F)F)ccc(-c2ccc(C3CN(C4CCNC4)C3)cc2)c1-c1nnn[nH]1 (stereo not shown) :: 8.02
NS(=O)(=O)c1cccc(-c2cccc(S(N)(=O)=O)c2-c2nnn[nH]2)c1 :: 6.31
NS(=O)(=O)c1c(C(F)(F)F)ccc(N2CCN(CCCO)CC2)c1-c1nnn[nH]1 :: 7.13
NS(=O)(=O)c1cccc(-c2cccc3c2NCCC3)c1-c1nnn[nH]1 :: 6.73
NS(=O)(=O)c1cccc(-c2csc3ccccc23)c1-c1nn[nH]n1 :: 8.45
NCC1CN(C2CCN(c3ccc(C(F)(F)F)c(S(N)(=O)=O)c3-c3nnn[nH]3)CC2)C1 :: 7.85
NS(=O)(=O)c1cccc(CCC2CCCCC2)c1-c1nnn[nH]1 :: 7.30
NCCCCN1CC(c2ccc(-c3ccc(C(F)(F)F)c(S(N)(=O)=O)c3-c3nnn[nH]3)cc2)C1 :: 8.02
Cc1cccn2c(-c3cccc(S(N)(=O)=O)c3-c3nnn[nH]3)cnc12 :: 8.24
NS(=O)(=O)c1cccc(-c2cnn3ncccc23)c1-c1nn[nH]n1 :: 7.15
NS(=O)(=O)c1cccc(C2CCCN(C(=O)C3CC3)C2)c1-c1nn[nH]n1 (stereo not shown) :: 6.13
CONC(=O)c1ccc(-c2cccc(S(N)(=O)=O)c2-c2nn[nH]n2)cc1 :: 6.61
C[C@H]1NC(=O)O[C@H]1c1ccc(-c2cccc(S(N)(=O)=O)c2-c2nnn[nH]2)cc1 :: 8.01
NC1(CNC2CCC(c3ccc(C(F)(F)F)c(S(N)(=O)=O)c3-c3nnn[nH]3)CC2)CC1 (stereo not shown) :: 9.61
NS(=O)(=O)c1c(C(F)(F)F)ccc(N2CC[C@H]3NCCO[C@@H]3C2)c1-c1nnn[nH]1 :: 8.95
C[C@H]1NC(=O)O[C@H]1c1ccc(-c2ccnc(S(N)(=O)=O)c2-c2nnn[nH]2)cc1 (racemic) :: 7.34

---

target_entity: IMP-1 (Serratia marcescens)
Sequence (P52699 whole entry, looked up): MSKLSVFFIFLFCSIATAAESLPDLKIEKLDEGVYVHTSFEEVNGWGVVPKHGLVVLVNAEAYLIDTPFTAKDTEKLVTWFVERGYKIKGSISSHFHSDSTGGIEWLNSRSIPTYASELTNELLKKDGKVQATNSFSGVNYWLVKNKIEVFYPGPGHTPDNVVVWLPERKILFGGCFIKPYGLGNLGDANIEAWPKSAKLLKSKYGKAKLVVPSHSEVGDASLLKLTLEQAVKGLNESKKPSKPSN
assay_explanation: biochemical
Type: biochemical
measurement_context: fluorescence assay with CCF2-FA substrate; read-out: IMP-1 IC50
pIC50: −log10 of the molar value.
reported_property: pIC50

NS(=O)(=O)c1cccc(-c2cnc(NC3CCCC3)nc2)c1-c1nnn[nH]1 [Example 124] :: 7.16
NC1(CN2CCC3(CCC(c4ccc(C(F)(F)F)c(S(N)(=O)=O)c4-c4nnn[nH]4)CC3)CC2)CC1 [Example 834] :: 8.26
NC1CC(N2CC(c3ccc(-c4ccc(C(F)(F)F)c(S(N)(=O)=O)c4-c4nnn[nH]4)cc3)C2)C1 (stereo not shown) [Example 807] :: 8.29
Nc1nc(N)c2ccc(-c3ccc(C(F)(F)F)c(S(N)(=O)=O)c3-c3nnn[nH]3)cc2n1 [Example 750] :: 7.67

---

target_entity: IMP-1 (Serratia marcescens)
assay_explanation: biochemical
Assay type: biochemical
measurement_context: IMP-1 enzyme, CCF2-FA fluorescence assay; read-out: IMP-1 IC50
Counter-ions that a name gives are not always drawn.
Classification by IC50 follows these ranges: bottom bin: < 30 nM; middle bin: ≥ 30 nM and < 100 nM; top bin: ≥ 100 nM

Nc1ccc(-c2cccc(S(N)(=O)=O)c2-c2nnn[nH]2)cn1 [Example 298, TFA salt] :: top bin
Nc1ncc(-c2ccc(Br)c(S(N)(=O)=O)c2-c2nn[nH]n2)s1 :: middle bin
NCc1ccc(-c2ccc(C(F)(F)F)c(S(N)(=O)=O)c2-c2nn[nH]n2)cc1 :: bottom bin
Nc1n[nH]c2ccc(-c3ccc(C(F)(F)F)c(S(N)(=O)=O)c3-c3nnn[nH]3)cc12 :: bottom bin
NC[C@H]1CC[C@H](Cc2ccc(-c3ccc(C4CCNCC4)cc3)c(-c3nn[nH]n3)c2S(N)(=O)=O)CC1 :: bottom bin
NS(=O)(=O)c1c(C(F)(F)F)ccc(C2CC2)c1-c1nnn[nH]1 :: bottom bin
Cc1ccc(-c2cccc(S(N)(=O)=O)c2-c2nnn[nH]2)cn1 :: top bin
NS(=O)(=O)c1cccc(-c2ccc(CNCCc3cc[nH]n3)cc2)c1-c1nnn[nH]1 :: middle bin
NS(=O)(=O)c1c(CC2CCN(CC3CNC3)CC2)ccc(-c2ccc(C3CCNCC3)cc2)c1-c1nn[nH]n1 :: bottom bin
NS(=O)(=O)c1cccc(-c2ccc(-c3noc(C4CCNC4)n3)cc2)c1-c1nn[nH]n1 (stereo not drawn) :: top bin
NS(=O)(=O)c1cccc(-c2ccc(CN3CNC(=O)C3)cc2)c1-c1nnn[nH]1 :: middle bin
NS(=O)(=O)c1c(CC2(F)CCNC2)ccc(-c2ccc(C3CCNCC3)cc2)c1-c1nn[nH]n1 (stereo not drawn) :: middle bin
Cc1cc(CNCc2ccc(-c3cccc(S(N)(=O)=O)c3-c3nnn[nH]3)cc2)n[nH]1 :: bottom bin
NS(=O)(=O)c1cccc(-c2ccc(CNCc3nn[nH]n3)cc2)c1-c1nnn[nH]1 :: bottom bin
NS(=O)(=O)c1c(Br)ccc(-c2ccc3c(c2)CNC3)c1-c1nn[nH]n1 :: middle bin
NS(=O)(=O)c1cccc(-c2ccc(N3CCNCC3)nc2)c1-c1nn[nH]n1 :: top bin
Nc1ccc2cc(-c3cccc(S(N)(=O)=O)c3-c3nnn[nH]3)ccc2n1 :: top bin
Nc1ccc(-c2ccc(Br)c(S(N)(=O)=O)c2-c2nn[nH]n2)cn1 :: bottom bin
NS(=O)(=O)c1cccc(-c2ccc(CNC3CCN(C4CCCC4)CC3)cc2)c1-c1nnn[nH]1 :: top bin
CC(O)C1CCN(c2ccnc(S(N)(=O)=O)c2-c2nnn[nH]2)CC1 (stereo not drawn) :: top bin
NS(=O)(=O)c1cccc(-c2ccc(CNC3CC(F)(F)C3)cc2)c1-c1nnn[nH]1 :: middle bin
NS(=O)(=O)c1cccc(-c2ccc(CNCCc3cn[nH]c3)cc2)c1-c1nnn[nH]1 :: top bin
NS(=O)(=O)c1cccc(-c2csc(-c3ccncc3)n2)c1-c1nnn[nH]1 :: top bin
Cc1cc(-c2nnn[nH]2)c(S(N)(=O)=O)cc1C :: top bin
CN1CCN(Cc2ccc(-c3cccc(S(N)(=O)=O)c3-c3nnn[nH]3)cc2)CC1 :: middle bin
NS(=O)(=O)c1c(CCC2CNC2)ccc(-c2ccc(C3CCNCC3)cc2)c1-c1nn[nH]n1 :: middle bin
NS(=O)(=O)c1cccc(-c2cccc3scnc23)c1-c1nnn[nH]1 :: middle bin
NS(=O)(=O)c1c(C(F)(F)F)ccc(-c2ccc3c(c2)CNC3)c1-c1nn[nH]n1 :: bottom bin
NS(=O)(=O)c1cccc(-c2cnc3ccoc3c2)c1-c1nn[nH]n1 :: top bin
NS(=O)(=O)c1cccc(-c2cnc3[nH]ncc3c2)c1-c1nn[nH]n1 :: top bin

---

target_entity: UniProtKB C7C422
Sequence (C7C422 whole entry, looked up, species assumed): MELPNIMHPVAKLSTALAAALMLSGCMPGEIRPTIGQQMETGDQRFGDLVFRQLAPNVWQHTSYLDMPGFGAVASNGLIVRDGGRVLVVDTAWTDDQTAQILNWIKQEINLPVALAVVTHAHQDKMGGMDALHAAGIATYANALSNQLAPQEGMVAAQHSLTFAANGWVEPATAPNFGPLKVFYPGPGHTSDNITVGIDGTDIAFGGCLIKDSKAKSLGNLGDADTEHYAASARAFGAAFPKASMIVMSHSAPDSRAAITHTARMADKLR
assay_explanation: biochemical
Format: biochemical
measurement_context: NDM-1 enzyme, CCF2-FA fluorescence assay; read-out: NDM-1 IC50
reported_property: IC50 (nM)

C[N+]1(C)CCC(c2ccc(-c3ccc(C(F)(F)F)c(S(N)(=O)=O)c3-c3nn[nH]n3)cc2)C1 (centres unmarked) :: 2.5
NC1CCC(c2ccc(-c3ccc(C4CCNCC4)cc3)c(-c3nn[nH]n3)c2S(N)(=O)=O)CC1 (centres unmarked) :: 1120
Cc1cc(-c2nnn[nH]2)c(S(N)(=O)=O)cc1C :: 591
CN(C)C1CCC(NCc2ccc(-c3cccc(S(N)(=O)=O)c3-c3nnn[nH]3)cc2)CC1 (centres unmarked) :: 14
Cn1cncc1C[C@@H](NCc1ccc(-c2cccc(S(N)(=O)=O)c2-c2nnn[nH]2)cc1)C(=O)O :: 21.4
NCCc1ccc(-c2cccc(S(N)(=O)=O)c2-c2nnn[nH]2)cn1 :: 174
NS(=O)(=O)c1cccc(-c2ccc3cnccc3c2)c1-c1nnn[nH]1 :: 1.38
NS(=O)(=O)c1cccc(-c2ccnc3ccccc23)c1-c1nn[nH]n1 :: 0.551

---

target_entity: VIM-1 (Pseudomonas aeruginosa (strain ATCC 15692 / DSM 22644 / CIP 104116 / JCM 14847 / LMG 12228 / 1C / PRS 101 / PAO1))
assay_explanation: Enzyme activity: determination of IC50, fluorescence assay with CCF2-FA substrate (VIM-1)
Format: biochemical
measurement_context: VIM-1 enzyme, CCF2-FA substrate; read-out: VIM-1 IC50
reported_property: IC50 (nM)

Cc1cc(N)ncc1-c1ccc(C(F)(F)F)c(S(N)(=O)=O)c1-c1nn[nH]n1 :: 0.656
CC1(O)CN(c2ccc(-c3cccc(S(N)(=O)=O)c3-c3nnn[nH]3)cn2)C1 :: 258
C[N+]1(C)CCC(Cc2ccc(-c3ccc(C4CNC4)cc3)c(-c3nn[nH]n3)c2S(N)(=O)=O)CC1 :: 3.89
Nc1ccc(-c2ccc(C[C@H]3CC[C@@H](N)CC3)c(S(N)(=O)=O)c2-c2nnn[nH]2)cn1 :: 7.94
